These measurements were taken from patent US11214803B2.

- System: Yap1 mRNA
- Experimental protocol: Antisense inhibition of human Yap1 in A-431 cells by cEt gapmers, single dose (Example 3, RTS36584)
- Assay type: cell-based
- Experimental conditions: Table 13; A-431 cells, 5,000 cells per well, free uptake, 2,000 nM modified oligonucleotide, approx. 48 hours; RTS36584; normalized to RIBOGREEN; Yap1 mRNA relative to untreated control cells
Strand notation (5' to 3'): a small letter for the sugar, then the base; units joined by * are phosphorothioate-linked, units joined directly phosphodiester-linked; [ ] holds rarer units or linkages, { } end groups; capitals alone tell only the bases. k = constrained ethyl (cEt); [5mC] = 5-methylcytosine; d = 2'-deoxy (DNA)
Assignment: determine reported YAP1 (% UTC) for the given substances.

Use the examples below as a reference point.
Substance	Val
958550 (k[5mC]*k[5mC]*kT*dG*dT*dA*dG*dA*d[5mC]*dA*d[5mC]*dA*dT*kA*k[5mC]*kT; antisense) [Compound 958550]	4 % UTC
958480 (antisense kA*kA*k[5mC]*dT*dG*dG*d[5mC]*dT*dT*dA*dT*dG*dG*kA*kA*kA) [Compound 958480]	24 % UTC
958600 (kG*kT*kA*dG*dA*dT*d[5mC]*dT*dA*dA*dG*dA*dA*kG*k[5mC]*k[5mC]; antisense) [Compound 958600]	8 % UTC
958495 (kG*kG*kT*d[5mC]*dA*dT*dT*dA*dT*dG*dT*dG*dA*k[5mC]*kT*kA; antisense) [Compound 958495]	56 % UTC

Below: the item to evaluate.
What value of YAP1 (% UTC) has been reported for the following substance? 958710 (antisense kA*kG*kG*dG*dA*dA*d[5mC]*d[5mC]*d[5mC]*dT*dT*dG*dG*k[5mC]*kT*kA) [Compound 958710]
77 % UTC
